# procedure.text: Cmax in Sprague-Dawley rat at 200 mg/kg, po
# Assay type: ADME, organism-based
# Design: dose 200 mg/kg, route oral
# condition.set: in vivo

{"smiles.data": "CC(C)c1cc(N2CC[C@@H](N)C2)nc(N)n1", "unit.of.measure": "µM", "Cmax": 4.91}

----------
# procedure.text: Half life in mouse kidney at 5 mg/kg, po administered as single dose by LC-MS/MS analysis
# Assay type: ADME, organism-based
# Parameters: dose 5 mg/kg, route oral
endpoint.name: half-life (h)

{"smiles.data": "CC(C)c1cc(N2CC[C@@H](N)C2)nc(N)n1", "endpoint.name": "half-life", "numeric.readout": 20.5}
